# Read-out: Tissue plasminogen activator (tPA), PLAT (gene 5327)
# Assay Remarks: BSK_BF4T_tPA: BioMAP Diversity Plus: BF4T Assay for Tissue plasminogen activator (tPA) Biomarker Activity (AID 2284272)
# Setup Conditions: primary human bronchial epithelial cells with fibroblasts
Activity calls are given as the source filed them. How the source made its calls: active means hit-call score of the fitted dose curve at least 0.9, where 1 is the maximum; inactive means score below 0.9.
Entry note: the call must match one of 1.0 = active, 0.0 = inactive

Worked examples follow.
Molecule: O=C(O)C(F)(F)C(F)(F)C(F)(F)C(=O)O
Answer Label: 0.0
--
Molecule: OCC(O)CC(F)(F)C(F)(F)C(F)(F)C(F)(F)C(F)(F)C(F)(F)C(F)(F)C(F)(F)F (configuration not stated)
Answer Label: 0.0
--
Molecule: CCOC(=O)CC(=O)C(F)(F)C(F)(F)F
Answer Label: 0.0
--
Molecule: O=C(Cl)C(F)(F)C(F)(F)C(F)(F)C(F)(F)C(F)(F)C(F)(F)F
Answer Label: 0.0
--
Molecule: NC(=O)C(F)(F)C(F)(F)C(F)(F)F
Answer Label: 0.0
--
Molecule: OCC(F)(F)C(F)(F)C(F)(F)CO
Answer Label: 0.0

Short answer needed: outcome of this test for O=C(O)CCC(F)(F)C(F)(F)C(F)(F)C(F)(F)C(F)(F)C(F)(F)C(F)(F)F ? 0.0

Hi, sorry to bother you, what did the test record for COC(F)(C(F)F)C(F)(F)F (configuration not stated) ? 0.0

Tell me the assay call for OCC(O)CC(F)(F)C(F)(F)C(F)(F)C(F)(F)F (configuration not stated) please. 0.0

Per the assay record, what outcome was assigned to NC(O)(C(F)(F)F)C(F)(F)F ? 0.0

Hi, sorry to bother you, what did the test record for C=CC(=O)OCC(F)(F)C(F)(F)C(F)(F)COC(=O)C=C ? 1.0

How was C=CC(=O)OCC(F)(F)C(F)(F)C(F)(F)C(F)(F)C(F)(F)C(F)(F)C(F)(F)C(F)F classified in this test? 0.0

###

# Read-out: Monocyte Chemoattractant Protein-1 (MCP1), CCL2 (gene 6347)
# Assay Remarks: BSK_LPS_MCP1: BioMAP Diversity Plus: LPS Assay for Monocyte Chemoattractant Protein-1 (MCP1) Biomarker Activity (AID 2283081)
# Setup Conditions: primary human HUVEC with PBMC; actives raise or lower the signal
Activity calls are given as the source filed them. How the source made its calls: active means hit-call score of the fitted dose curve at least 0.9, where 1 is the maximum; inactive means score below 0.9.
Pick one and only one: True for active, False for inactive

Molecule Smiles: O=C=Nc1cccc2c(N=C=O)cccc12
Answer Label: False
//
Molecule Smiles: O=S(=O)(O)CCC(F)(F)C(F)(F)C(F)(F)C(F)(F)C(F)(F)C(F)(F)C(F)(F)C(F)(F)F
Answer Label: False
//
Molecule Smiles: CCOC(=O)CC(=O)C(F)(F)C(F)(F)F
Answer Label: False
//
Molecule Smiles: C=CC(=O)OCC(F)(F)C(F)(F)C(F)(F)C(F)(F)C(F)(F)C(F)(F)C(F)(F)C(F)F
Answer Label: False
//
Molecule Smiles: Brc1nc2ccccc2s1
Answer Label: False

Next item in the queue.
Please let me know the test result on file for O=C1C=CC(=O)N1c1ccc(Cc2ccc(N3C(=O)C=CC3=O)cc2)cc1 . True

###

# Assay Remarks: ATG_GAL4_TRANS: Attagene TRANS-FACTORIAL HepG2 Assay for GAL4 (Internal Marker) (AID 2282976)
# Setup Conditions: HepG2 Attagene TRANS GAL4 internal marker reporter
Inconclusive results are not listed. Activity calls are given as the source filed them. How the source made its calls: active means hit-call score of the fitted dose curve at least 0.9, where 1 is the maximum; inconclusive means response in the unintended direction; inactive means score below 0.9.
Parameter: outcome

Below, each entry is followed by its recorded outcome result.
Compound: Cc1ccc(O)cn1
outcome: inactive

Compound: CCOC(=O)C1CC(=O)C(=C(O)C2CC2)C(=O)C1 (stereo not given)
outcome: inactive

Compound: Brc1ccccn1
outcome: inactive

Compound: O=c1[nH]cccc1O
outcome: inactive

Compound: CCCC(=O)OCC(COC(=O)CCC)OC(=O)CCC
outcome: inactive

Compound: NCC(F)(F)C(F)(F)C(F)(F)C(F)(F)C(F)(F)C(F)(F)C(F)(F)C(F)(F)F
outcome: inactive

Compound: CCOC(OCC)OCC
outcome: inactive

Compound: CC(=O)C=O
outcome: inactive

Compound: Nc1cccnc1N
outcome: inactive

Compound: CCCCCCCCn1sc(Cl)c(Cl)c1=O
outcome: inactive

Now turn to the next compound.
What measured outcome goes with CSc1ccc(O)cc1C ? inactive
